Known pEC50 of a selection of compounds
# measured-target: UniProt:Q96RI1
# method-description: Human FXR (NRIH4) Assay, luciferase reporter
# condition-context: CHO reporter cells expressing human NR1H4, luciferase, 22 hours incubation
pEC50: −log10 of the molar value.

The following compounds have reported results that may help.
{"compound": "CC(C)Oc1cc(-c2nnn[nH]2)cc2sc(NC3C4CCC3CC(OCc3c(-c5ccccc5OC(F)(F)F)noc3C3CC3)C4)nc12 (stereo not shown) [Example 13-7]", "pEC50": "> 7.60"}
{"compound": "COC(=O)c1ccc(S(=O)(=O)C2C3CCC2CC(OCc2c(-c4ccccc4OC(F)(F)F)noc2C2CC2)C3)cc1 (stereo not shown) [Example 11-14]", "pEC50": "6.30 to 7.60"}
{"compound": "O=C(O)c1cc(F)c2nc(S[C@@H]3[C@@H]4CC[C@H]3C[C@@H](NCc3c(-c5ccccc5OC(F)(F)F)noc3C3CC3)C4)sc2c1 [Example 14-2]", "pEC50": "6.30 to 7.60"}
{"compound": "CC(C)Oc1cc(C(=O)O)cc2sc(NC3C4CCC3CC(OCc3c(-c5ccccc5OC(F)(F)F)noc3C3CC3)C4)nc12 (stereo not shown) [Example 3]", "pEC50": "> 7.60"}
{"compound": "O=C(O)c1ccc2nc(NC3C4CCC3CC(OCc3c(-c5ccccc5OC(F)(F)F)noc3C3CC3)C4)ccc2c1 (stereo not shown) [Example 3-6]", "pEC50": "> 7.60"}

Task: Give the measured pEC50 of N#Cc1cccc2nc(NC3C4CCC3CC(OCc3c(-c5ccccc5OC(F)(F)F)noc3C3CC3)C4)cnc12 (stereo not shown) [Example 48] .
Output: > 7.60

Task: Try FC(F)(F)Oc1ccccc1-c1noc(C2CC2)c1COC1CC2CCC(C1)C2Nc1cnc2c(-c3nnn[nH]3)cc(C3CC3)cc2n1 (stereo not shown) [Example 28] next.
Output: > 7.60

Task: Try O=C(O)c1ccc2c(S(=O)(=O)NC3C4CCC3CC(OCc3c(-c5ccccc5OC(F)(F)F)noc3C3CC3)C4)cccc2c1 (stereo not shown) [Example 9] next.
Output: > 7.60

* * *

# measured-target: human FXR (NR1H4) (Homo sapiens)
# Sequence (Q96RI1 1-486): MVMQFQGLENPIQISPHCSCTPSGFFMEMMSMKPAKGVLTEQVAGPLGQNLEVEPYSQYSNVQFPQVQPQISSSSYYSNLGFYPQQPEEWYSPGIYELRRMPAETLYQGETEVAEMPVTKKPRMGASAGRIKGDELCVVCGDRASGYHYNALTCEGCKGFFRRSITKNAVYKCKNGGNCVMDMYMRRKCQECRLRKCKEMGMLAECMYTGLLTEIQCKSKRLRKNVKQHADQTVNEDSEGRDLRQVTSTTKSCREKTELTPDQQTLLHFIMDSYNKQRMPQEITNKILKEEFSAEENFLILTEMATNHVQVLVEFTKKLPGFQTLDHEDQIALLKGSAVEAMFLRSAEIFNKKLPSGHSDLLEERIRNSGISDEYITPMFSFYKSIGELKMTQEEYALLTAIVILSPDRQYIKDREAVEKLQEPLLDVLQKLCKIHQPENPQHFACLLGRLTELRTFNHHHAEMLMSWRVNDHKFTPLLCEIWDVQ
# method-description: Human FXR (NRIH4) Assay, luciferase reporter
# condition-context: CHO reporter cells expressing human NR1H4, luciferase, 22 hours incubation
pEC50: −log10 of the molar value.
Known pEC50 of a selection of compounds

{"compound": "N#Cc1cc(C2CC2)cc2nc(NC3C4CCC3CC(OCc3c(-c5ccccc5OC(F)(F)F)noc3C3CC3)C4)cnc12 (stereo not shown)", "pEC50": "6.30 to 7.60"}
{"compound": "FC(F)(F)Oc1ccccc1-c1noc(C2CC2)c1CO[C@H]1C[C@H]2CC[C@@H](C1)[C@@H]2Nc1cnc2c(-c3nnn[nH]3)cccc2n1", "pEC50": "> 7.60"}
{"compound": "CCOC(=O)c1cc(F)c2nc(S(=O)(=O)C3C4CCC3CC(OCc3c(-c5ccccc5OC(F)(F)F)noc3C3CC3)C4)sc2c1 (stereo not shown)", "pEC50": "< 6.30"}

Task: Give the measured pEC50 of O=C(O)c1cccc2nc(NC3C4CCC3CC(OCc3c(-c5ccccc5OC(F)(F)F)noc3C3CC3)C4)cnc12 (stereo not shown) .
Output: > 7.60

Task: Try O=C(O)c1cccc2nc(SC3C4CCC3CC(OCc3c(-c5ccccc5OC(F)(F)F)noc3C3CC3)C4)cnc12 (stereo not shown) next.
Output: > 7.60
